Measured IC50 of individual entries
System: HIV strain r13021
test.protocol: Antiviral spectrum, protease inhibitor resistant strain
Type: cell-based
condition: strain r13021; L10I, K20R, L24I, M36I, I54V, L63P, A71V, V82T, I84V
Reply numerically in nM, unit not repeated.

*Q* Which IC50 is reported for this molecule? CC(C)CN(CC(O)C(Cc1ccccc1)NC(=O)OC1COC2OCCC12)S(=O)(=O)c1ccc2c(c1)OCO2 (centres unmarked) [Compound 13]
*A* 5.5

Now for a further molecule.
*Q* Which IC50 is reported for this molecule? CC(C)CN(CC(O)C(Cc1ccccc1)NC(=O)OC1COC2OCCC12)S(=O)(=O)c1ccc2c(c1)OCO2 (centres unmarked) [Compound 14]
*A* 1.5

The origin of these recorded values is patent US7157495B2.
